method: Cytotoxicity against cat CRFK cells assessed as cell viability by MTS assay
Assay type: cell-based, Felis catus
condition.details: crfk
Reported CC50 values for the following molecules.
endpoint: CC50

smiles_str=Nc1ccccc1C(=O)n1c(-c2ccc(S(=O)(=O)O)cc2)nc2ccccc21 reported_value="11 µg/mL"
smiles_str=O=C(c1ccc([N+](=O)[O-])cc1)n1c(-c2ccc(S(=O)(=O)O)cc2)nc2ccccc21 reported_value="> 100 µg/mL"
smiles_str=Cc1ccccc1C(=O)n1c(-c2ccc(S(=O)(=O)O)cc2)nc2ccccc21 reported_value="> 100 µg/mL"
smiles_str=CCCCC(=O)n1c(-c2ccc(S(=O)(=O)O)cc2)nc2ccccc21 reported_value="> 100 µg/mL"
smiles_str=Cc1ccc(S(=O)(=O)n2c(-c3ccc(S(=O)(=O)O)cc3)nc3ccccc32)cc1 reported_value="> 100 µg/mL"
